# System: BT-549 breast
# test: NCI tumour cell line growth inhibition, 48 h
Collected TGI values appear next to each entry.

- compound: "Cc1ccc(-c2nc3nc(-c4ccc(Br)cc4)nc(N4CCCNCC4)c3o2)cc1"
  measured-target: "BT-549 breast"
  measured-metric: "TGI"
  result: "34.6 µM"
- compound: "O=S(=O)(Nc1ccc(Cl)c(F)c1)c1ccc(-c2cnc(C3CC3)o2)cc1"
  measured-target: "BT-549 breast"
  measured-metric: "TGI"
  result: "15.4 µM"

Data request: Field request: TGI | item: COc1ccc2c(c1)O/C(=C\c1ncc([N+](=O)[O-])n1C)C2=O
Data returned: 2.94 µM

Data request: Entry under review: Fc1cccc(F)c1C1SCc2nc3cc4ccccc4cc3n21 (stereo not given) . Reported TGI?
Data returned: > 100 µM

Data request: Fill blank: measured TGI of the compound O=C1c2ccccc2C(=O)N1CCCC(=O)n1cc(F)c(=O)[nH]c1=O is ____.
Data returned: > 100 µM
